- experimental_system: mouse 11β-HSD2 (Mus musculus)
- Sequence (P51661 1-386): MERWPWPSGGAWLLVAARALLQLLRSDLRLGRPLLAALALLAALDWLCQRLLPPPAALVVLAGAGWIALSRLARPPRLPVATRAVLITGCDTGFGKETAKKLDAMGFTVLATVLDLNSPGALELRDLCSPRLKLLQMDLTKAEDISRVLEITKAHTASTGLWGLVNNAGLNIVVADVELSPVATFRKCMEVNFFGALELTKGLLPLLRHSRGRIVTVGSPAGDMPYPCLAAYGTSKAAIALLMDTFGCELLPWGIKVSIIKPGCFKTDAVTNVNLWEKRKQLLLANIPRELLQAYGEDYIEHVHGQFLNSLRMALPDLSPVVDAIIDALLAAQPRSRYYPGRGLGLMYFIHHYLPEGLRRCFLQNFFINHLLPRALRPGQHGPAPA
- experiment_description: scintillation proximity assay (SPA), microsomes of HEK-293 cells transfected with mouse 11β-HSD2
- test_parameters: read-out: Mouse (IC50) 11β-HSD2; Table 3; averages of two determinations
pIC50: −log10 of the molar value.
quantity_measured: pIC50

Q. Given the compound "Cc1coc2c1C(=O)C(=O)c1c-2ccc2c1CCCC2(C)C" , write its reported pIC50.
A. < 3.00

* * *

- experimental_system: mouse 11β-HSD1 (Mus musculus, UniProt P50172)
- Sequence (P50172 whole entry): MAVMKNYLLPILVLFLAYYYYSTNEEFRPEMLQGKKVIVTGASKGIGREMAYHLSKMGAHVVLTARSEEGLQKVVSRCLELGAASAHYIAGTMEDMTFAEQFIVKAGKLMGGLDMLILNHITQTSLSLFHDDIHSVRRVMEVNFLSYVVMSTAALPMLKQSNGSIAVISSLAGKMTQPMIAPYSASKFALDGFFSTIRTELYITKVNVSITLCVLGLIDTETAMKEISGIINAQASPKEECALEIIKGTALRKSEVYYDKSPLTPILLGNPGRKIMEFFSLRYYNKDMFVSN
- experiment_description: scintillation proximity assay (SPA), microsomes of HEK-293 cells transfected with mouse 11β-HSD1
- test_parameters: read-out: Inhibitory ratio m-HSD1, at 1.0 μM; averages of three determinations
Catalogue of compounds with associated inhibition at 1 µM
Numbers only; they are read as %.

Previously resolved entries follow.
# compound, inhibition at 1 µM [%]
rows = [
    ("CC1(C)CCCc2c1ccc1c2C(=O)C(=O)c2c(CO)coc2-1 [Compound 30]", 98.6),
    ("Cc1c(CO)oc2c1C(=O)C(=O)c1c-2ccc2c1CCCC2(C)C [Compound 28b]", 88.5),
    ("Cc1coc2c1C(=O)C(=O)c1c-2ccc2c1C=CC(=O)C2(C)C [Compound 14]", 85.9),
    ("Cc1coc2c1C(=O)C(=O)c1c-2ccc2c1C=CCC2(C)C [Compound 13]", 92.3),
]

Could you now look at the following compound, please?
Q. Given the compound Cc1coc2ccc(O)cc12 [Compound 12] , write its reported inhibition at 1 µM.
A. 12.4

* * *

Catalogue of compounds with associated Emax
- experimental_system: 11β-HSD1 in 3T3-L1 adipocytes (Mus musculus, UniProt P50172)
- Construct: endogenous in cells; host or cells: 3T3-L1 adipocytes
- Sequence (P50172 whole entry): as above
- experiment_description: 11β-HSD1 activity assay in 3T3-L1 adipocytes
- Format: cell-based
- test_parameters: inhibition relative to MK544 10 μM, read-out: Max effect
Numbers only; they are read as %.

Previously resolved entries follow.
# compound, result_unit, Emax
data = [
    ("Cc1coc2c1C(=O)C(=O)c1c-2ccc2c1CCC(=O)C2(C)C", "%", 90),
    ("Cc1coc2c1C(=O)C(=O)c1c-2ccc2c1C=CC(=O)C2(C)C", "%", 104),
    ("Cc1coc2c1C(=O)C(=O)c1c-2ccc2c1C=CCC2(C)C", "%", 102),
    ("Cc1coc2c1C(=O)C(=O)c1c-2ccc2c1CCCC2(C)C", "%", 104),
    ("Cc1c(COCO)oc2c1C(=O)C(=O)c1c-2ccc2c1CCCC2(C)C [Compound 28a]", "%", 104),
]

Q. Provide 11β-HSD1 in 3T3-L1 adipocytes (Mus musculus, UniProt P50172) Emax reading for Cc1c(CO)oc2c1C(=O)C(=O)c1c-2ccc2c1CCCC2(C)C [Compound 28b] .
A. 100

Q. Provide 11β-HSD1 in 3T3-L1 adipocytes (Mus musculus, UniProt P50172) Emax reading for "CC1(C)CCCc2c1ccc1c2C(=O)C(=O)c2c(CO)coc2-1" .
A. 105

Where these numbers come from: paper PMC9492458
